target: human PRMT6 (Homo sapiens, UniProt Q96LA8); construct: Flag-PRMT6-His; made in house; host or cells: HEK 293F cells (BacMam baculovirus); test: PRMT6 Biochemical Assay (3H-SAM Flashplate, peptide substrate); settings: Biochemical IC50 PRMT6, single experiment or average of multiple experiments
Sequence (Q96LA8 with tags, fused parts or gaps): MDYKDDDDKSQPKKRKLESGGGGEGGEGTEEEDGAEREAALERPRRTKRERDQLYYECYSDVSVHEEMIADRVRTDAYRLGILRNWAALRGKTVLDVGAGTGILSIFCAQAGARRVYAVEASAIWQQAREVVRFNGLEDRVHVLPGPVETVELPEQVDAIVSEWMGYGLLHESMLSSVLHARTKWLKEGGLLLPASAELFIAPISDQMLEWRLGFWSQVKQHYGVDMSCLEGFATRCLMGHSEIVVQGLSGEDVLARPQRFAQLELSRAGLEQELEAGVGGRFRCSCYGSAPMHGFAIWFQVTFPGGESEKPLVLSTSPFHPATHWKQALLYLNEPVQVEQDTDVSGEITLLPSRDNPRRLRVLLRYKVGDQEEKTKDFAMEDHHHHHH
Label TRUE when IC50 is strictly below 50 nM; otherwise label FALSE.

1. CN(CCN)Cc1cnn(CCO)c1-c1ccc(F)cc1 [Compound 65] ... FALSE
2. Cc1cc(C#N)ccc1-c1n[nH]cc1CN(C)CCN [Compound 110] ... TRUE
3. COc1ccc(F)cc1-c1n[nH]cc1CN(C)CCN [Compound 160] ... FALSE

Input: Lab note: IC50 threshold 50 nM. Does this compound come in strictly under it? CN(CCN)Cc1cnn(CC(O)CO)c1-c1ccc(F)cc1 (stereo not shown) [Compound 113]
Output: FALSE

Input: Field: below-cutoff. Rule: recorded IC50 strictly less than 50 nM. Subject: CNCCN(C)Cc1cn[nH]c1-c1ccc(OC(C)C)c(Cl)c1 [Compound 201]
Output: TRUE

---

target: human PRMT6 (Homo sapiens); construct: Flag-PRMT6-His; made in house; host or cells: HEK 293F cells (BacMam baculovirus); assay: PRMT6 Biochemical Assay (3H-SAM Flashplate, peptide substrate); conditions: Biochemical IC50 PRMT6, single experiment or average of multiple experiments
Quantity Measured: pIC50
As a rule, pIC50 stands for the negative log10 of the concentration, concentration in M.

Sample answers from the record:
1) CNCCN(C)Cc1c[nH]nc1-c1ccc(F)cc1 [Compound 2] ... 7.02
2) CNCCN(C)Cc1cn(C(C)C)nc1-c1ccc(F)cc1 [Compound 15] ... 6.28
3) CNCCN(C)Cc1c[nH]nc1-c1cccc(OC)c1 [Compound 24] ... 7.58
4) CNCCN(C)Cc1cnn(C2CCCC2)c1-c1ccc(OC(C)C)cc1 [Compound 255] ... 7.12
5) CNCCN(C)Cc1c[nH]nc1-c1ccc(OC2CCC2)c(F)c1 [Compound 305] ... 7.56

Input: Sample CNCCN(C)Cc1c[nH]nc1-c1ccc(CO)cc1 [Compound 28] — what was its pIC50?
Output: 8.04

Input: Could you tell me which pIC50 is on file for CNCCN(C)Cc1n[nH]cc1-c1ccc(OC(C)C)c(Cl)c1 [Compound 212] ?
Output: 8.04

Input: Consider the molecule CN(CCN)Cc1c[nH]nc1-c1ccc(Oc2ccccc2F)cc1 [Compound 259] and give its measured pIC50.
Output: 9.10

Input: Requested read-out: pIC50. Entry: CNCCN(C)Cc1c[nH]nc1-c1ccc(F)cc1F [Compound 49]
Output: 7.41

---

// reported pIC50 per item
Molecular target: human PRMT1 (Homo sapiens, UniProt Q99873)
Construct: GST-tagged PRMT1; made in house; host or cells: High Five insect cells (baculovirus)
Sequence (Q99873 with tags, fused parts or gaps): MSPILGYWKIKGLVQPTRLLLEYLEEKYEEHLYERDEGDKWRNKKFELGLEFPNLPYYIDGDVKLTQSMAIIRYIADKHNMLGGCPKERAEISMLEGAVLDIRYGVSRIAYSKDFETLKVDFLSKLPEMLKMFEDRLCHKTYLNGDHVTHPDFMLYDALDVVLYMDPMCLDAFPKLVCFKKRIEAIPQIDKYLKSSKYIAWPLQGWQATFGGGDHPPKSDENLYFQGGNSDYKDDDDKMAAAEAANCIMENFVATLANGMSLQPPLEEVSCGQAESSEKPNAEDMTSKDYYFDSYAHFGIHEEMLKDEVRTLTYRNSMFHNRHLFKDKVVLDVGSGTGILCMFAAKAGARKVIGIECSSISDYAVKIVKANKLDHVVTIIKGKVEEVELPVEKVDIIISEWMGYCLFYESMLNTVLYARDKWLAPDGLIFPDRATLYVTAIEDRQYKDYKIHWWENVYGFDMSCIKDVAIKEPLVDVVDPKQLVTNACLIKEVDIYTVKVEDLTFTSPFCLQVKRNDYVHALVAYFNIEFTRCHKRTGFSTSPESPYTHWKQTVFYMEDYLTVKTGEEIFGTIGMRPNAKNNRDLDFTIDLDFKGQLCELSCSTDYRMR
Test: PRMT1 Biochemical Assay (3H-SAM Flashplate, peptide substrate)
Conditions: single experiment or average of multiple experiments
Source text: S-adenosylmethionine (SAM), S-adenosylhomocysteine (SAH), bicine, Tween20, dimethylsulfoxide (DMSO), bovine skin gelatin (BSG), and Tris(2-carboxyethyl)phosphine hydrochloride solution (TCEP) were purchased from Sigma-Aldrich at the highest level of purity possible. ^3H-SAM was purchase from American Radiolabeled Chemicals with a specific activity of 80 Ci/mmol. 384-well streptavidin Flashplates were purchased from PerkinElmer. […]
The value called pIC50 is obtained by taking minus log10 of the concentration in mol/L.

Would you please look over these solved cases?
1. CC(C)N(CCN)Cc1c[nH]nc1-c1ccc(F)cc1 ... 6.21
2. CNCCN(C)Cc1cn[nH]c1-c1ccc(C#N)cc1 ... 7.86
3. CN(CCN)Cc1c[nH]nc1-c1ccc(OC(F)(F)F)cc1 ... 8.33
4. COc1ccc(-c2n[nH]cc2CN(C)CCN)c(OC)c1 ... 6.76
5. COc1cc(F)ccc1-c1n[nH]cc1CN(C)CCN ... 6.91

Now look at this one.
Input: What value of measured pIC50 is listed for "CN(CCN)Cc1c[nH]nc1-c1cccc(Cl)c1" ?
Output: 7.61

---

Target: Human CARM1 (PRMT4) (Homo sapiens)
Construct: Flag-CARM1-His; made in house; host or cells: HEK 293F cells (BacMam baculovirus)
Sequence (Q86X55 1-585 isoform Q86X55-1): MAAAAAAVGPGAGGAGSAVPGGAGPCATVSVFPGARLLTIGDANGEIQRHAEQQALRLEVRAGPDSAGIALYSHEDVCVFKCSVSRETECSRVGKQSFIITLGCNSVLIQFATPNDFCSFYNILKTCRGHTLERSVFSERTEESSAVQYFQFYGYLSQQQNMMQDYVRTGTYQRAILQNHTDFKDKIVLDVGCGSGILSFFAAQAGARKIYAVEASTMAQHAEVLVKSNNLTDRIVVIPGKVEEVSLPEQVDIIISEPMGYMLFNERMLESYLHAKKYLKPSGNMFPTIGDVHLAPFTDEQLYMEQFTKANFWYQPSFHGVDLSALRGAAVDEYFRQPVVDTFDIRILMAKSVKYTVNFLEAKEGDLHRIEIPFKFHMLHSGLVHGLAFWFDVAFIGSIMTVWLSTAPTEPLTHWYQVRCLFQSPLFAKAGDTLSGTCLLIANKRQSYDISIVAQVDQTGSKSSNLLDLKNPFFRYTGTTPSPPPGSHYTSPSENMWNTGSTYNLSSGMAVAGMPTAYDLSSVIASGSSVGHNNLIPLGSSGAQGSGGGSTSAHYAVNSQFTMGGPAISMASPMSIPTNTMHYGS
Test: CARM1 Biochemical Assay (3H-SAM Flashplate, peptide substrate)
Conditions: single experiment or average of multiple experiments
From the text: S-adenosylmethionine (SAM), S-adenosylhomocysteine (SAH), bicine, Tween20, dimethylsulfoxide (DMSO), bovine skin gelatin (BSG), sodium butyrate and Tris(2-carboxyethyl)phosphine hydrochloride solution (TCEP) were purchased from Sigma-Aldrich at the highest level of purity possible. ^3H-SAM was purchase from American Radiolabeled Chemicals with a specific activity of 80 Ci/mmol. 384-well streptavidin Flashplates were purchased from PerkinElmer. […]
Quantity Measured: IC50 (µM)
Give the number; µM is assumed, so skip it.

1. COc1ccccc1-c1n[nH]cc1CN(C)CCN [Compound 109] ... 5.21
2. Cc1ccc(-c2n[nH]cc2CN(C)CCN)c(Cl)c1 [Compound 90] ... 6.92
3. COc1ccc(-c2n[nH]cc2CN(C)CCN)cc1 [Compound 153] ... 2.06
4. CN(CCN)Cc1c[nH]nc1-c1ccc(F)cc1F [Compound 99] ... 7.61
5. CCn1cc(CN(C)CCNC)c(-c2ccc(F)cc2)n1 [Compound 8] ... 3.46
6. CNCCN(C)Cc1cnn(CC2CCOCC2)c1-c1ccc(F)cc1 [Compound 12] ... 4.84
7. CN(CCN)Cc1c[nH]nc1-c1ccc(F)cc1Cl [Compound 89] ... 5.98
8. CNCCN(C)Cc1c[nH]nc1-c1cccc(OC(F)(F)F)c1 [Compound 39] ... 2.11

Input: Which IC50 reading was recorded for the compound CN(CCN)Cc1n[nH]cc1-c1ccc(OC2CC2)cc1 [Compound 119] ?
Output: 0.441

Input: Which IC50 is reported for this compound? CNCCN(C)Cc1cnn(CC(=O)OC)c1-c1ccc(OC(C)C)cc1 [Compound 249]
Output: 9.63

---

biological target: human PRMT8 (Homo sapiens, UniProt Q9NR22); experiment: PRMT8 Biochemical Assay (3H-SAM Flashplate, peptide substrate); details: single experiment or average of multiple experiments
Sequence (Q9NR22 whole entry): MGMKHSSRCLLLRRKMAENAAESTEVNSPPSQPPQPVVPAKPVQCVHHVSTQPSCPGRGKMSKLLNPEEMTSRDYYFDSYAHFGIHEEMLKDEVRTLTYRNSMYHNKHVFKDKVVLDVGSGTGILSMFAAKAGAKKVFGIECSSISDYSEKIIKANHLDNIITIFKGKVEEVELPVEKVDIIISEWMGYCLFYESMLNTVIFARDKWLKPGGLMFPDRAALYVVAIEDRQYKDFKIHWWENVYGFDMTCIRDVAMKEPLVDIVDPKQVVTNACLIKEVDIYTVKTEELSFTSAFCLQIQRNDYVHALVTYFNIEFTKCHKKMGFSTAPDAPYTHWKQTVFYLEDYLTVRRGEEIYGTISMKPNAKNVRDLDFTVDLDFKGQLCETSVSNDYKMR
Mark Met only when IC50 stays strictly below 500 nM. Values equal to the cut-off are Not met.

1. CNCCN(C)Cc1c[nH]nc1-c1cccc2ccccc12 [Compound 57] ... Met

Input: Decide: IC50 of CNCCN(C)Cc1c[nH]nc1-c1ccc(OC(COC)COC)cc1 [Compound 316] strictly below 500 nM?
Output: Met

Input: Does CC(C)Oc1cc(-c2n[nH]cc2CN(C)CCN)ccc1F [Compound 188] have IC50 strictly under 500 nM?
Output: Not met

Input: Threshold test, IC50 < 500 nM: CCNCCN(C)Cc1c[nH]nc1-c1ccc(F)cc1 [Compound 60]
Output: Not met

Input: Below 500 nM on IC50? Entry CCCc1ccc(-c2n[nH]cc2CN(C)CCNC)cc1 [Compound 20]
Output: Met

Input: Hi there! Is IC50 for CN(CCN)Cc1n[nH]cc1-c1ccc(OC2CC2)cc1 [Compound 119] below 500 nM, do you know?
Output: Met

---

Biological target: Human CARM1 (PRMT4) (Homo sapiens, UniProt Q86X55)
Construct: Flag-CARM1-His; made in house; host or cells: HEK 293F cells (BacMam baculovirus)
Sequence (Q86X55 1-585 isoform Q86X55-1): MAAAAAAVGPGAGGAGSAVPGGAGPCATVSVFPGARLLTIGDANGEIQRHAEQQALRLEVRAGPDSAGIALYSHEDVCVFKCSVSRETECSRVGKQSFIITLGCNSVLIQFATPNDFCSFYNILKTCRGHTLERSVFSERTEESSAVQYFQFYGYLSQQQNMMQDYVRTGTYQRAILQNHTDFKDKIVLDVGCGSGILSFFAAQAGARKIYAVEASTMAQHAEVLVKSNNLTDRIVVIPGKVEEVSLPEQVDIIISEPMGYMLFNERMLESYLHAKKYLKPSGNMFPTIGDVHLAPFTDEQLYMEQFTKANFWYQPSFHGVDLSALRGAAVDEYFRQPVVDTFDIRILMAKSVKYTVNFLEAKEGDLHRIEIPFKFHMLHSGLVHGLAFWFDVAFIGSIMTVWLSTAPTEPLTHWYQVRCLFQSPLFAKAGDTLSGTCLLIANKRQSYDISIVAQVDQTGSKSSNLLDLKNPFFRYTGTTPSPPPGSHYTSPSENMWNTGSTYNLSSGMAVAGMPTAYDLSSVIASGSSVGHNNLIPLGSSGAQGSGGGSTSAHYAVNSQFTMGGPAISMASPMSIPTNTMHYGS
Test: CARM1 Biochemical Assay (3H-SAM Flashplate, peptide substrate)
Settings: single experiment or average of multiple experiments
Quantity Measured: IC50 (nM)
Note: unit nM is implicit; provide only the numeric part.

Examples with their reported IC50 follow.
1. CNCCN(C)Cc1cn(Cc2ccccn2)nc1-c1ccc(OC(C)C)cc1 ... 2820
2. CN(CCN)Cc1c[nH]nc1-c1ccc(C(F)(F)F)c(F)c1 ... 1370
3. CNCCN(C)Cc1c[nH]nc1-c1ccc(CC#N)cc1 ... 1370
4. C=CCn1ncc(CN(C)CCNC)c1-c1ccc(OC(C)C)cc1 ... 142
5. CNCCN(C)Cc1cnn(C2CC2)c1-c1ccc(F)cc1 ... 970
6. CNCCN(C)Cc1c[nH]nc1-c1ccccc1F ... 5620
7. CNCCN(C)Cc1cnn(C2CCOC2)c1-c1ccc(OC(C)C)cc1 (stereo not shown) ... 285
8. Cc1cc(C#N)ccc1-c1n[nH]cc1CN(C)CCN ... 8770

# context switch: different compound, same IC50
Input: Please report the recorded IC50 for "COc1cc(-c2n[nH]cc2CN(C)CCN)ccc1F" .
Output: 1290
